Tested on: OVCAR-3 ovarian
Test: NCI-60 one-dose screen, 48 h
Details: 10 µM unless noted
About 83,000 compounds went through this panel and 20% of them were active in at least one assay; those are over-represented in the sample as a whole. Calls of active or inactive are those of the source. The calls were made as follows: active = growth percent below 10; inactive = the rest. *1 amine or outer side, *2 acyl side, *3 side chain or, on linkers, in order; H or OH if unused. Where a SMILES comes first, the peptide text is derived from it. [ ]: non-standard residue; d: D form. The star is where a group is joined. X5 = CCC(=O)CC1CC(C)CC(C(=O)[*:2])N1[*:1]; X4 = CCCCCCCCC(C)C(=O)*; Aib = CC(C)(N)C(=O)O; X6 = CC(CN(C)CCO)N*
Write down the outcome that applies. Available outcomes: active, inactive

## Input Can you look up the reported call for CCOC(=O)C1(C)CCCC1N (stereo not drawn) for me?
## Output inactive

## Input So what was the verdict on `OCCOSCCO` in this test?
## Output inactive

## Input Which result was noted for this compound in the test: O=C(c1ccccc1)C(Br)[N+](=O)[O-] (stereo not drawn)
## Output inactive

## Input Please indicate how the test categorized CCCCCCCCC(C)C(=O)N1CCCC1C(=O)N1C(CC(=O)CC)CC(C)CC1C(=O)NC(C)C(=O)NC(C)(C)C(=O)NC(C)(C)C(=O)NC(C(=O)NC(C)C(=O)NC(C)(C)C(=O)NC(C)(C)C(=O)NC(C)CN(C)CCO)C(C)CC (stereo not drawn) (X4-P[X5]A[Aib][Aib]IA[Aib][Aib]-X6; configuration not given here) .
## Output active

## Input Give the logged outcome of this assay for the following compound: CC(CSc1n[nH]c(=S)s1)c1ccccc1 (stereo not drawn)
## Output inactive

## Input Field: outcome | Entry: `CCOC(=O)c1[nH]c(C#N)c(C(=O)OCC)c1C`
## Output inactive

## Input I would be grateful if you could indicate the recorded call for `c1ccc2sc(SSN3CC4CCC(CC4)C3)nc2c1` .
## Output inactive

## Input For this compound, state the assay outcome: `CCCCCC[C@@H](O)C/C=C\CCCCCCCC(=O)OCCOC`
## Output inactive
